A compilation of published log10 of Ki results with the protein given by its sequence.
Target chain: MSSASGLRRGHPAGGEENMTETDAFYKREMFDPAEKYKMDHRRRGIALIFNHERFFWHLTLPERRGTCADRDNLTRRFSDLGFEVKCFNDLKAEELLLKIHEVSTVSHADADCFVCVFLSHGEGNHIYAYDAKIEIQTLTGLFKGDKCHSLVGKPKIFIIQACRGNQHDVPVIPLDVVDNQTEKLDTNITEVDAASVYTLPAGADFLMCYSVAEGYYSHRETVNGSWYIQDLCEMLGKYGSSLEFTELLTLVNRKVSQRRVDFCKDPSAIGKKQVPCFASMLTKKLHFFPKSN
measurement.type: log10 of Ki (log10 of the value in nM)

compound	measurement.type	reported.result
O=C[C@H](CC(=O)O)NC(=O)c1ccc(CNS(=O)(=O)c2ccc(O)c(C(=O)O)c2)s1	log10 of Ki	2.73
O=C[C@H](CC(=O)O)NC(=O)c1ccc(CNS(=O)(=O)c2ccc(O)c(C(=O)O)c2)cc1	log10 of Ki	3.00
O=C(O)C[C@H](NC(=O)c1cnc(CNS(=O)(=O)c2ccc(O)c(C(=O)O)c2)nc1)C(=O)CSCc1ccccc1Cl	log10 of Ki	2.28
Cc1cccc(C)c1C(=O)OCC(=O)[C@H](CC(=O)O)NC(=O)[C@H](CCCCNC(=O)CCCCCNC(=O)CCCCC1SC[C@@H]2NC(=O)N[C@H]12)NC(=O)[C@H](CCC(=O)O)NC(=O)OCc1ccccc1 (some centres undefined)	log10 of Ki	5.74
O=C1C(=O)N(Cc2ccccc2)c2ccc([N+](=O)[O-])cc21	log10 of Ki	3.00
Cc1cc(CNS(=O)(=O)c2ccc(O)c(C(=O)O)c2)sc1C(=O)N[C@@H](CC(=O)O)C(=O)CSCc1ccccc1Cl	log10 of Ki	3.38
O=C(O)C[C@H](NC(=O)c1cnc(CNS(=O)(=O)c2ccc(O)c(C(=O)O)c2)s1)C(=O)CSCc1ccccc1Cl	log10 of Ki	3.36
O=C(O)C[C@H](NC(=O)c1ccc(CNS(=O)(=O)c2ccc(O)c(C(=O)O)c2)s1)C(=O)CSCc1ccccc1Cl	log10 of Ki	3.99
O=C[C@H](CC(=O)O)NC(=O)c1ccc(CNS(=O)(=O)c2ccc(O)c(C(=O)O)c2)nc1	log10 of Ki	3.15
